- System: cultured lymphoid leukemia L1210 cells
- Protocol details: inhibition of DNA synthesis in cultured L1210 leukemia cells
- Format: cell-based
- Reported conditions: Mus musculus; cultured L1210 leukemia cells; read-out: Inhibition of Synthesis of DNA, ED50
pIC50: −log10 of the molar value.
Experimental endpoint: pIC50

>  <Compound>
CCCCCCCCCCCC(=O)NCC(=O)N[C@@H]1[C@@H](O)[C@H](O)[C@@H](Nc2ncnc3[nH]cnc23)O[C@H]1C [Compound 3]

>  <Experimental result>
4.54

$$$$
>  <Compound>
CC(C)CCCCCCCCCCCCC(=O)NCC(=O)NC1C(C)OC(Nc2ncnc3[nH]cnc23)C(O)C1O (centres unmarked) [Compound 2]

>  <Experimental result>
5.59

$$$$
